Overview of reported IC50 across a group of compounds:
TARGET DESC: CDK1-cyclin B (Homo sapiens, UniProt P06493)
Sequence (P06493 whole entry): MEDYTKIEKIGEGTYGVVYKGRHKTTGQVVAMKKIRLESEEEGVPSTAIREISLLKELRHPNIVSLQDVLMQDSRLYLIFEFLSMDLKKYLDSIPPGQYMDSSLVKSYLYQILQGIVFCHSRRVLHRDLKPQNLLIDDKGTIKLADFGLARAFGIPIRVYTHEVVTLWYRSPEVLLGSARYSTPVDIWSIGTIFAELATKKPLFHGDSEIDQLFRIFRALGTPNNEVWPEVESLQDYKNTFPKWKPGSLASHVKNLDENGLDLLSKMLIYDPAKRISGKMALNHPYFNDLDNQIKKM
Sequence (P14635 whole entry partner): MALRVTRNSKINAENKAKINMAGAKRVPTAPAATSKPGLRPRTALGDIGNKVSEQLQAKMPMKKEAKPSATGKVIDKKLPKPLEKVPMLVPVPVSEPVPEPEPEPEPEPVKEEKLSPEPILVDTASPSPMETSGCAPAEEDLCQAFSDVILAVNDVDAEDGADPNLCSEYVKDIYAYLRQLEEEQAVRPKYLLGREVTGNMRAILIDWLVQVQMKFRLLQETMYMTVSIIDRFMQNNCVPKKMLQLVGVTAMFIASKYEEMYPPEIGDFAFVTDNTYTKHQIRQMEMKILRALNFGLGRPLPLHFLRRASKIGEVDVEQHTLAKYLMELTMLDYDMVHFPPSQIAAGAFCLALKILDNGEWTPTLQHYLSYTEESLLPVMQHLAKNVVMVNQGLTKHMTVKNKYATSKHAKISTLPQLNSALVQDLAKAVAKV
PROTOCOL SUMMARY: Kinase assay (radioactive phosphate incorporation), CDK1-cyclin B
Assay type: biochemical
MEASUREMENT SETUP: read-out: Kinase Inhibition pIC50 CDK1-cyclin B (converted)
Answer format: numeric, µM implied, no suffix.

STRUCTURE SMILES STRING | TARGET DESC | UNIT | RESULT
Cc1nc(N)sc1-c1ccnc(Nc2ccc(S(=O)(=O)NCc3ccccc3)cc2)n1 | CDK1-cyclin B (Homo sapiens, UniProt P06493) | µM | 0.1
Cc1nc(C)c(-c2ccnc(Nc3cccc(CNS(C)(=O)=O)c3)n2)s1 | CDK1-cyclin B (Homo sapiens, UniProt P06493) | µM | 0.2
Cc1nc(C)c(-c2ccnc(Nc3cccc(CNS(=O)(=O)C(F)(F)F)c3)n2)s1 | CDK1-cyclin B (Homo sapiens, UniProt P06493) | µM | 1.58
CCNS(=O)(=O)c1cccc(Nc2nccc(-c3sc(N)nc3C)n2)c1 | CDK1-cyclin B (Homo sapiens, UniProt P06493) | µM | 2
CCNc1nc(C)c(-c2ccnc(Nc3ccc(N4CCNCC4)cc3)n2)s1 | CDK1-cyclin B (Homo sapiens, UniProt P06493) | µM | 1
CC(=O)NS(=O)(=O)c1cccc(Nc2nccc(-c3sc(N)nc3C)n2)c1 | CDK1-cyclin B (Homo sapiens, UniProt P06493) | µM | 6.31
Cc1nc(NC(C)(C)C)sc1-c1ccnc(Nc2cccc([N+](=O)[O-])c2)n1 | CDK1-cyclin B (Homo sapiens, UniProt P06493) | µM | 1.58
CNc1nc(C)c(-c2ccnc(Nc3cccc(S(=O)(=O)NCCO)c3)n2)s1 | CDK1-cyclin B (Homo sapiens, UniProt P06493) | µM | 1.26

So for Cc1nc(C)c(-c2ccnc(Nc3cccc(S(C)(=O)=O)c3)n2)s1 , the logged IC50 turned out to be 0.501

So for Cc1nc(C)c(-c2ccnc(Nc3cccc(S(=O)(=O)NCCO)c3)n2)s1 , the logged IC50 turned out to be 2

So for CCNc1nc(C)c(-c2ccnc(Nc3cc(OC)c(OC)c(OC)c3)n2)s1 , the logged IC50 turned out to be 2
